biological target: T1, C3b (human, UniProt P01024 23-667; P01024 749-1663); experiment: competitive ELISA, column 'Mu Ic50 (nM)'; format of paragraph 183: variant in solution competes with coated huCRIg(L)-LFH for C3b
T1 construct: also called soluble C3b; human C3b
T1 sequence (P01024 23-667 limits assumed, chain 1 of 2): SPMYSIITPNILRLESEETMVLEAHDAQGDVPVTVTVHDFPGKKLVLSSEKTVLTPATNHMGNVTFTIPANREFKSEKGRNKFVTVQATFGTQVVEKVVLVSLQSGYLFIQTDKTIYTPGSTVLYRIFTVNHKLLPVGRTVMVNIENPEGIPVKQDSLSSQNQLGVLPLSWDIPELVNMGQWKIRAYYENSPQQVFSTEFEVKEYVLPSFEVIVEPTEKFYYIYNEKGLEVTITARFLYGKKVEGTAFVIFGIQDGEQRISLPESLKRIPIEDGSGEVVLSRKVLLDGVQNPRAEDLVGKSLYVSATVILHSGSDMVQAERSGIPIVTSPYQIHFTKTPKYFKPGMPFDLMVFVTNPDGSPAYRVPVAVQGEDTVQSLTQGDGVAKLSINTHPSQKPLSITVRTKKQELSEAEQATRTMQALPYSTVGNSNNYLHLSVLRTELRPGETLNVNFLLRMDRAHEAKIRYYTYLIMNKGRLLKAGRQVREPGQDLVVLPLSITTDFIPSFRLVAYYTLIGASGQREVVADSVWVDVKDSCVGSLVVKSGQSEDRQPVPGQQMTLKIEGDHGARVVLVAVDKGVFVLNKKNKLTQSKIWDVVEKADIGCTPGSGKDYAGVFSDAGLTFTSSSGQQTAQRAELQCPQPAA
T1 sequence (P01024 749-1663 limits assumed, chain 2 of 2): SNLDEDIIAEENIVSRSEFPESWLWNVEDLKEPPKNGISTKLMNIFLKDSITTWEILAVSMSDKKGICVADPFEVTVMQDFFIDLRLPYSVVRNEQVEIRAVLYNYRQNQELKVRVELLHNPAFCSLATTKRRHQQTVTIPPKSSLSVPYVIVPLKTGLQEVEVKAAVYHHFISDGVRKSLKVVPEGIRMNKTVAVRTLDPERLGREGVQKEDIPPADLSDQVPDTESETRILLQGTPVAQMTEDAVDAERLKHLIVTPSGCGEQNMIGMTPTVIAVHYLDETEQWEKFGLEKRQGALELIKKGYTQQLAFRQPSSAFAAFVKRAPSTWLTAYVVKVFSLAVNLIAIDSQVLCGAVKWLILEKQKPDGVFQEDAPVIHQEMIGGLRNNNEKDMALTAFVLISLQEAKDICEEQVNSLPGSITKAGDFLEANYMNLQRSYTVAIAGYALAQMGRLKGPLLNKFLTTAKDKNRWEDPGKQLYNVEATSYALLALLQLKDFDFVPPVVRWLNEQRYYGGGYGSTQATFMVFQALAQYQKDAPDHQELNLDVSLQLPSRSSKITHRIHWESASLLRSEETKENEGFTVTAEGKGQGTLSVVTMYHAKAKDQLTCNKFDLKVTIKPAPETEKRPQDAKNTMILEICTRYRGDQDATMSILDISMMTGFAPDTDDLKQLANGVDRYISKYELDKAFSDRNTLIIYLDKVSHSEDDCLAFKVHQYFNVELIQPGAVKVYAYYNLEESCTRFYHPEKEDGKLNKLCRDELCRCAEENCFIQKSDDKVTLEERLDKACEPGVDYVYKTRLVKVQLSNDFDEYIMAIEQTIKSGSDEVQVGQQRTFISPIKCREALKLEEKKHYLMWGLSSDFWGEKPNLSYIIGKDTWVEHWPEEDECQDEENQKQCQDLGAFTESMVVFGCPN
measured-metric: pIC50
// returns pIC50 (minus log10 of molar concentration), number only

Here is how some binders turned out for pIC50.
binder: IRL41 (receptor, also called RIL41; RIL 41) CRIg variant: RPILEVPESVTGPWKGDVNLPCTYDPLQGYTQVLVKWLVQRGSDPVTIFLRDSSGDHIQIAKYRGRLHVSHKVPGDVSLQLSTLEYDDRSHYTCEVTWQTPDGNQVVRDKITELRVQKHSSKLLKTKTEAPTTMTYPLKATSTVKQSWDWTTDMDGYLGETSAGPGKSLP
pIC50: 8.00
--
binder: YL59 (receptor, also called M86Y/Q105R/K110N) CRIg variant: RPILEVPESVTGPWKGDVNLPCTYDPLQGYTQVLVKWLVQRGSDPVTIFLRDSSGDHIQQAKYQGRLHVSHKVPGDVSLQLSTLEYDDRSHYTCEVTWQTPDGNRVVRDNITELRVQKHSSKLLKTKTEAPTTMTYPLKATSTVKQSWDWTTDMDGYLGETSAGPGKSLP
pIC50: 7.74

Here is another binder to look at.
Field pIC50 (entry L24 (receptor, also called G42D/D44H/P45F (printed G42D/D44/H/P45F)) CRIg variant: RPILEVPESVTGPWKGDVNLPCTYDPLQGYTQVLVKWLVQRDSHFVTIFLRDSSGDHIQQAKYQGRLHVSHKVPGDVSLQLSTLEMDDRSHYTCEVTWQTPDGNQVVRDKITELRVQKHSSKLLKTKTEAPTTMTYPLKATSTVKQSWDWTTDMDGYLGETSAGPGK ) reads 6.62

Taken from patent US20160008427A1.
